Values compiled from patent US20260373266A1.

Target: DCAF1 WD40 domain (residues 1077-1390) (Homo sapiens, UniProt Q9Y4B6)
Construct: DCAF1 WD40 domain (residues 1077-1390)
Sequence (Q9Y4B6 1077-1390): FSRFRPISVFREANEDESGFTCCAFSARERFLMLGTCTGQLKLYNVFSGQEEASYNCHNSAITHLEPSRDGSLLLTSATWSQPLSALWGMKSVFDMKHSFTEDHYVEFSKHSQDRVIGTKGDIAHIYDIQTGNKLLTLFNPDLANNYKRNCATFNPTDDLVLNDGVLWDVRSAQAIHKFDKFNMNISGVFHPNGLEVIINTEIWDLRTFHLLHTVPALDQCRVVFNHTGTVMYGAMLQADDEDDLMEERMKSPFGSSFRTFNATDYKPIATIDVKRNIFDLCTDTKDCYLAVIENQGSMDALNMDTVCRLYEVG
Experiment: DCAF1 binding assay by SPR (Biacore 8K+), DCAF1-3 KD
Conditions: 25 °C, read-out: DCAF1-3 SPR (KD)
pKd: −log10 of the molar value.
measurement-type: pKd

{"columns": ["compound", "study-system", "pKd"],
 "data": [
  ["C=CC(=O)Nc1ccc2c(C(=O)N[C@@H](CC(N)=O)c3cccc(Cl)c3)n[nH]c2c1", "DCAF1 WD40 domain (residues 1077-1390) (Homo sapiens, UniProt Q9Y4B6)", "< 3.70"],
  ["NC(=O)C[C@H](NC(=O)c1cn[nH]c1-c1ccccc1F)c1ccc(C(N)=O)cc1", "DCAF1 WD40 domain (residues 1077-1390) (Homo sapiens, UniProt Q9Y4B6)", "< 3.70"],
  ["NCc1cccc(N2CCC[C@@H](Nc3cc(N4CCOCC4)ccn3)C2)c1", "DCAF1 WD40 domain (residues 1077-1390) (Homo sapiens, UniProt Q9Y4B6)", "< 3.70"],
  ["Fc1cccc(N2CCC[C@@H](Nc3cc([C@H]4CCCNC4)ccn3)C2)c1", "DCAF1 WD40 domain (residues 1077-1390) (Homo sapiens, UniProt Q9Y4B6)", "4.00 to 5.00"],
  ["NC(=O)C[C@@](NC(=O)c1c[nH]nc1-c1ccccc1F)(c1ccccc1)c1cccc(Cl)c1", "DCAF1 WD40 domain (residues 1077-1390) (Homo sapiens, UniProt Q9Y4B6)", "< 3.70"]
]}

Briefly, pKd measured for CC(=O)Nc1ccc(N2CCC[C@@H]3[C@H]2CCN3c2cc(N3CCCCC3)ccn2)cc1F : 4.00 to 5.00

Briefly, pKd measured for C[C@H]1CCCN(c2ccnc(N[C@@H]3CCCN(c4cccc(F)c4)C3)c2)C1 : 4.00 to 5.00
